- system.tested: hA2b (Homo sapiens (Human), UniProt P29275)
- Sequence (P29275 whole entry): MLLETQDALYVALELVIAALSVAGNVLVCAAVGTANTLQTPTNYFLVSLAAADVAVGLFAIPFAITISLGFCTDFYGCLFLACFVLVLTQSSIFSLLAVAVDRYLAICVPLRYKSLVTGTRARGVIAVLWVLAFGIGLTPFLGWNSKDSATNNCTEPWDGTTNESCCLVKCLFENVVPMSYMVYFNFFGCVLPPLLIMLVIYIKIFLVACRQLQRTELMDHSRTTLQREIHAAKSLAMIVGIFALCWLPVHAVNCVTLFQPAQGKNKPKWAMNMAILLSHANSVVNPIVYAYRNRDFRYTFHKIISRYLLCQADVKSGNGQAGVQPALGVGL
- assay.text: cAMP inhibition assay in hA2b/CHO cells
- Assay type: cell-based
- measurement.setup: adenosine stimulation, read-out: cAMP & FLIPR IC50 (nM) hA2b
quantity: IC50

A selection of reference data follows.
Cc1cc(-c2c(-c3ncco3)nc(N)n3nc(Cc4ncccc4F)nc23)cc(OC(F)F)n1 | 5800 nM
Nc1nc(-c2ccc(F)cc2)c(-c2ccnc(C(F)(F)F)c2)c2nc(Cc3c(F)cccc3F)nn12 | 254 nM
Cc1coc(-c2nc(N)n3nc(Cc4c(F)cccc4F)nc3c2-c2ccc(=O)n(C)c2)n1 | 10000 nM
Nc1nc(-c2ccc(F)cc2)c(-c2ccc3ncccc3c2)c2nc(Cc3ncccc3F)nn12 | 82 nM
Cc1cc(-c2c(-c3ccc(F)cc3)nc(N)n3nc(Cc4c(F)cccc4F)nc23)c(C)cn1 | 81 nM

Hi, could you look up IC50 for each item in my list?
1. Cn1cnc2ccc(-c3c(-c4ncco4)nc(N)n4nc(Cc5c(F)cccc5F)nc34)cc21
2. Nc1nc(-c2ccc(F)cc2)c(-c2ccc(=O)n(C3CS(=O)(=O)C3)c2)c2nc(Cc3c(F)cccc3F)nn12
3. Cn1cc(-c2c(-c3ccccc3Cl)nc(N)n3nc(Cc4ncccc4F)nc23)ccc1=O

1. 102 nM
2. 3300 nM
3. 1260 nM

====

I'd appreciate it if you could supply log10(IC50) values for the items below.
- system.tested: hA1 (Homo sapiens (Human))
- assay.text: Radioligand binding to hA1 membrane ([3H]-DPCPX)
- measurement.setup: 50 min at 25° C., read-out: Binding Affinity (IC50 nM) hA1
Hey, these are logged values: log10 of IC50, nM being the unit before logging.

Solved cases below.
Cn1cc(-c2c(-n3nccn3)nc(N)n3nc(Cc4c(F)cccc4F)nc23)ccc1=O | 0.90
COc1cccc(-c2nc(N)n3nc(Cc4ncccc4F)nc3c2-c2ccc(=O)n(C)c2)c1 | 0.15
Nc1nc(-n2nccn2)c(-c2ccc3nccn3c2)c2nc(Cc3ncccc3F)nn12 | 1.72
Nc1nc(-c2ccc(F)cc2)c(-c2ccc3nccn3c2)c2nc(Cc3ncccc3F)nn12 | 0.53
Cn1cc(-c2c(-c3ccc(F)cc3)nc(N)n3nc(Cc4ncccc4F)nc23)ccc1=O | 0.04

Can you give me log10(IC50) for all of these, one by one?
1. CC(C)n1cc(-c2c(-c3ccc(F)cc3)nc(N)n3nc(Cc4ncccc4F)nc23)ccc1=O
2. Cc1c(-c2c(-c3ccc(F)cc3)nc(N)n3nc(Cc4ncccc4F)nc23)ccc(=O)n1C
3. Cn1cc(-c2c(-c3ccc(F)cc3)nc(N)n3nc(Cc4c(F)cccc4F)nc23)ccc1=O
4. Nc1nc(-c2ncco2)c(-c2ccnc(OC(F)F)c2)c2nc(Cc3ncccc3F)nn12
5. Cn1cc(-c2c(-c3ncco3)nc(N)n3nc(Cc4ncccc4F)nc23)ccc1=O
6. Cn1cc(-c2c(-c3ccc(C(F)F)cc3)nc(N)n3nc(Cc4ncccc4F)nc23)ccc1=O
7. CN(C)c1cc(-c2c(-c3ccc(F)cc3)nc(N)n3nc(Cc4c(F)cccc4F)nc23)ccn1
8. Nc1nc(-c2ncco2)c(-c2ccc3nccn3c2)c2nc(Cc3ncccc3F)nn12

1. -1.00
2. 1.66
3. -0.70
4. 1.32
5. 1.63
6. 0.34
7. 0.36
8. 2.14

====

- system.tested: hA1 (Homo sapiens (Human))
- assay.text: FLIPR inhibition assay in hADORA1/CHO (hA1 expressing) cells
- Type: cell-based
- measurement.setup: hADORA1/CHO cells, FLIPR calcium, adenosine stimulation; read-out: cAMP & FLIPR IC50 (nM) hA1
# if measured IC50 < 20 nM: Y  # else: N

Cn1cc(-c2c(-c3ncco3)nc(N)n3nc(Cc4ncccc4F)nc23)ccc1=O [Example 21] | N
Cn1cc(-c2c(-c3ccc4c(ccn4C)c3)nc(N)n3nc(Cc4ncccc4F)nc23)ccc1=O [Example 97] | Y
Cc1cc(-c2c(-c3ccc(F)cc3)nc(N)n3nc(C(C)c4c(F)cccc4F)nc23)ccn1 (centres unmarked) [Example 12] | N
Cn1cc(-c2c(-c3cccc(Cl)c3)nc(N)n3nc(Cc4ncccc4F)nc23)ccc1=O [Example 70] | Y
Cc1ccc(-c2nc(N)n3nc(Cc4c(F)cccc4F)nc3c2-c2ccc(=O)n(C)c2)cn1 [Example 24] | Y
Cn1cc(-c2nc(N)n3nc(Cc4ncccc4F)nc3c2-c2ccc(=O)n(C)c2)cn1 [Example 59] | N
Cc1cnc2ccc(-c3c(N4CCOCC4)nc(N)n4nc(Cc5ncccc5F)nc34)cn12 [Example 102] | N

API: the following record is the query input.
Take the compound Nc1nc(-c2ccc(F)cc2)c(-c2ccc3nccnc3c2)c2nc(Cc3ncccc3F)nn12 [Example 96] and say whether its IC50 is less than 20 nM.
N

====

Would you mind telling me the reported IC50 of each entry?
- system.tested: hA3 (Homo sapiens (Human), UniProt P0DMS8)
- Sequence (P0DMS8 whole entry): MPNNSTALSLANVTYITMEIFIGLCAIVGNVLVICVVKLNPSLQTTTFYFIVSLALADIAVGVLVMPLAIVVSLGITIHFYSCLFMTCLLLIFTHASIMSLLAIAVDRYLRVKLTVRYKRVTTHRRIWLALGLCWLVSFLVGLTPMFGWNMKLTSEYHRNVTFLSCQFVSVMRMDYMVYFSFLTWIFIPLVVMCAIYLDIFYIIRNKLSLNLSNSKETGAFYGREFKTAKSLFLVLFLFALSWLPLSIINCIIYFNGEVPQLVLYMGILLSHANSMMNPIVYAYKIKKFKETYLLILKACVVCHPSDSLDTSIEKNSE
- assay.text: Radioligand binding to hA3 membrane (AB-MECA radioligand)
- measurement.setup: 60 min at 27° C., read-out: Binding Affinity (IC50 nM) hA3
Answers are plain numbers, in nM.

Cn1cc(-c2c(-c3ccc(F)cc3)nc(N)n3nc(Cc4ncccc4F)nc23)ccc1=O | 2870
CC(C)n1cc(-c2c(-c3ccc(F)cc3)nc(N)n3nc(Cc4ncccc4F)nc23)ccc1=O | 7290
Cn1cc(-c2c(-c3ccc(F)cc3)nc(N)n3nc(Cc4ncccc4OC(F)F)nc23)ccc1=O | 1070
CCn1cc(-c2c(-c3ccc(F)cc3)nc(N)n3nc(Cc4ncccc4F)nc23)ccc1=O | 10000

Consider the compound CN(C)c1cc(-c2c(-c3ccc(F)cc3)nc(N)n3nc(Cc4c(F)cccc4F)nc23)ccn1 and give its recorded IC50.
4770

====

For each entry below, report its log10(IC50) value.
- system.tested: mA2a (Mus musculus (Mouse))
- Sequence (Q60613 whole entry): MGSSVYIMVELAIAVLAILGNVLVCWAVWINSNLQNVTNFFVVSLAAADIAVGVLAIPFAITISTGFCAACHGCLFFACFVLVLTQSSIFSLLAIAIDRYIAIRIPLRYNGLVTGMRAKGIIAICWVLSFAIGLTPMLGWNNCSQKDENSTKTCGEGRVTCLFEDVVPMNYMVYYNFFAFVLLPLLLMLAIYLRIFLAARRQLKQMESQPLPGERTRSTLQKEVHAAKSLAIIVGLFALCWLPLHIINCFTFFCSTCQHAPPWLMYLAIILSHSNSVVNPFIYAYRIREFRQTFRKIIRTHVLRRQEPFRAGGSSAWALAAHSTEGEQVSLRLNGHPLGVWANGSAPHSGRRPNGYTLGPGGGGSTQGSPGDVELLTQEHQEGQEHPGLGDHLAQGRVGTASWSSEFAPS
- assay.text: cAMP inhibition assay in mA2a/CHO cells
- Assay type: cell-based
- measurement.setup: adenosine stimulation, read-out: cAMP & FLIPR IC50 (nM) mA2a
Recorded IC50 (log10, nM)

# count of solved cases: 5
Cc1cc(-c2c(-c3ccc(F)cc3)nc(N)n3nc(Cc4cscn4)nc23)ccn1 | 2.32
COc1ccccc1-c1nc(N)n2nc(Cc3ncccc3F)nc2c1-c1ccc(=O)n(C)c1 | 2.35
COc1cc(-c2c(-c3ccc(F)cc3)nc(N)n3nc(Cc4c(F)cccc4F)nc23)ccn1 | 0.18
Cn1cc(-c2c(-c3ccc(F)cc3)nc(N)n3nc(Cc4ncccc4OC(F)F)nc23)ccc1=O | 0.69
Cc1cc(-c2c(-c3ncco3)nc(N)n3nc(Cc4c(F)cccc4F)nc23)cc(C)n1 | 2.04

I need log10(IC50) for every entry listed below, if you could help.
1. Cn1cc(-c2c(-c3ccc(F)cc3)nc(N)n3nc(Cc4c(F)cccc4F)nc23)ccc1=O
2. Nc1nc(-c2ccc(F)cc2)c(-c2ccnc(C(F)(F)F)c2)c2nc(Cc3c(F)cccc3F)nn12

-0.10
1.38

Please report log10(IC50) for every entry that follows.
1. Cc1ccc(-c2nc(N)n3nc(Cc4c(F)cccc4F)nc3c2-c2ccc(=O)n(C)c2)cn1
2. Cn1cc(-c2c(-c3ccccn3)nc(N)n3nc(Cc4c(F)cccc4F)nc23)ccc1=O
3. Nc1nc(-c2ccc(F)cc2)c(-c2ccc3nncn3c2)c2nc(Cc3ncccc3F)nn12
4. Nc1nc(-c2ccc(F)cc2)c(-c2ccc(=O)n(C3CCOC3)c2)c2nc(Cc3c(F)cccc3F)nn12 (centres unmarked)

[2.21, 1.04, 2.03, 0.46]

Quick one: give me log10(IC50) for each item below, same order please.
1. Nc1cccc(Cc2nc3c(-c4ccc5nccn5c4)c(-c4ccc(F)cc4)nc(N)n3n2)n1
2. Cc1nccc(-c2c(-c3ccc(F)cc3)nc(N)n3nc(Cc4c(F)cccc4F)nc23)c1C
3. Cn1cc(-c2c(-n3nccn3)nc(N)n3nc(Cc4c(F)cccc4F)nc23)ccc1=O

[0.86, 2.88, 1.48]

====

Please provide measured IC50 for the entries that follow.
- system.tested: hA1 (Homo sapiens (Human), UniProt P30542)
- Sequence (P30542 whole entry): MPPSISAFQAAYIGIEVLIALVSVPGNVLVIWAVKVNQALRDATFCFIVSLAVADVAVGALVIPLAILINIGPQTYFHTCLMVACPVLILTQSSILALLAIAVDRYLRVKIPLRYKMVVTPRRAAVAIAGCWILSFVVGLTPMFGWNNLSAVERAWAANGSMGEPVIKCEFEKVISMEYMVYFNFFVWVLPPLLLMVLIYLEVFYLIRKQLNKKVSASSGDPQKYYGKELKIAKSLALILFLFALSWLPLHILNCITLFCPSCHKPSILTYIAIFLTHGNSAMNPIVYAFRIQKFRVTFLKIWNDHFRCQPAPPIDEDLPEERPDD
- assay.text: Radioligand binding to hA1 membrane ([3H]-DPCPX)
- measurement.setup: 50 min at 25° C., read-out: Binding Affinity (IC50 nM) hA1
Answers are plain numbers, in nM.

Example cases with answers are listed next.
Cn1cc(-c2c(-c3ncco3)nc(N)n3nc(Cc4c(F)cccc4F)nc23)ccc1=O | 6.8
CCn1cc(-c2c(-c3ccc(F)cc3)nc(N)n3nc(Cc4ncccc4F)nc23)ccc1=O | 0.8
Nc1cccc(Cc2nc3c(-c4ccc5nccn5c4)c(-c4ccc(F)cc4)nc(N)n3n2)n1 | 4
Cn1cc(-c2c(-c3ccc(C(F)(F)F)cc3)nc(N)n3nc(Cc4ncccc4F)nc23)ccc1=O | 5.1
Cn1cc(-c2c(-c3cccc(Cl)c3)nc(N)n3nc(Cc4ncccc4F)nc23)ccc1=O | 0.8
Nc1nc(-c2ncco2)c(-c2ccnc(OC(F)F)c2)c2nc(Cc3c(F)cccc3F)nn12 | 5.4
COc1ccc(-c2nc(N)n3nc(Cc4ncccc4F)nc3c2-c2ccc(=O)n(C)c2)cc1 | 1.7

Find the measured IC50 of Cn1cc(-c2c(-c3ccc(F)cc3)nc(N)n3nc(Cc4ncccc4OC(F)F)nc23)ccc1=O and report it.
4

Origin of measurements: patent US10858365B2
